Entry source: ChEMBL document CHEMBL1142346

System: Pyricularia grisea
Assay: Antifungal activity against Magnaporthe grisea infected rice plant assessed as logarithm of fungal control value at 100 ppm after 5 days
Assay type: functional
parameter.measured: Activity

INSERT INTO assay_data (mol, recorded_value) VALUES
  ('CCc1ccc(NC(=O)Cc2cs/c(=N\c3cccc([N+](=O)[O-])c3)n2C)cc1', 1.99),
  ('Cn1c(CC(=O)Nc2ccc(Oc3ccccc3)cc2)cs/c1=N/c1ccc(Oc2ccccc2)cc1', 1.4),
  ('Cn1c(CC(=O)Nc2ccc(Oc3ccccc3)cc2)cs/c1=N\c1ccc(F)cc1F', 1.23),
  ('Cn1c(CC(=O)Nc2ccc(Cl)cc2)cs/c1=N\c1cccc(Br)c1', 1.98),
  ('Cn1c(CC(=O)Nc2ccc(C(F)F)cc2)cs/c1=N\c1ccc(Cl)cc1', 1.52),
  ('CCCCCCc1ccc(/N=c2/scc(CC(=O)Nc3ccc(CC)cc3)n2C)cc1', 2),
  ('COc1ccccc1/N=c1\scc(CC(=O)Nc2ccc(OC(F)(F)F)cc2)n1C', 0.7),
  ('CCc1ccc(NC(=O)Cc2cs/c(=N\c3ccc(Br)c(C)c3)n2C)cc1', 1.98),
  ('COc1ccc(NC(=O)Cc2cs/c(=N\c3cccc(F)c3)n2C)cc1', 1.97),
  ('Cn1c(CC(=O)Nc2ccc([N+](=O)[O-])cc2)cs/c1=N\c1cccc(F)c1', 1.23),
  ('CCCCOc1ccc(NC(=O)Cc2cs/c(=N\c3cccc(F)c3)n2C)cc1', 1),
  ('Cn1c(CC(=O)Nc2ccc(Br)cc2)cs/c1=N\c1cccc(F)c1', 1.9),
  ('Cc1ccc(NC(=O)Cc2cs/c(=N/c3ccc(Br)cc3)n2C)cc1', 1.94),
  ('CCCCOc1ccc(NC(=O)Cc2cs/c(=N/c3ccc(C(F)(F)F)cc3)n2C)cc1', 1),
  ('Cn1c(CC(=O)Nc2ccc(Oc3ccccc3)cc2)cs/c1=N\c1cccc(F)c1', 1.23),
  ('CCc1ccc(NC(=O)Cc2cs/c(=N/c3ccc(I)cc3)n2C)cc1', 1.97),
  ('CCc1ccc(NC(=O)Cc2cs/c(=N\c3ccccc3F)n2C)cc1', 1.99),
  ('COc1ccc(NC(=O)Cc2cs/c(=N\c3ccc(C)cc3C)n2C)cc1', 1.96),
  ('Cn1c(CC(=O)Nc2ccc(OC(F)(F)F)cc2)cs/c1=N\c1cccc(Br)c1', 1.7),
  ('CCc1ccc(NC(=O)Cc2cs/c(=N\c3ccc(F)c([N+](=O)[O-])c3)n2C)cc1', 1.98),
  ('CCc1ccc(NC(=O)Cc2cs/c(=N/c3ccc(CC#N)cc3)n2C)cc1', 2);

###

Test system: Pyricularia grisea
Assay: Antifungal activity against Magnaporthe grisea infected rice plant assessed as logarithm of fungal control value at 100 ppm after 5 days
Assay type: functional
parameter.measured: Activity

INSERT INTO results (molecule, parameter_measured, recorded_value) VALUES
  ('Cn1c(CC(=O)Nc2ccc([N+](=O)[O-])cc2)cs/c1=N/c1ccc(C#N)cc1', 'Activity', 0.7),
  ('CCc1ccc(NC(=O)Cc2cs/c(=N\c3ccc(Br)cc3C)n2C)cc1', 'Activity', 1.98),
  ('CCc1ccc(NC(=O)Cc2cs/c(=N\c3ccc(Cl)cc3Cl)n2C)cc1', 'Activity', 1.96),
  ('COc1cccc(/N=c2\scc(CC(=O)Nc3ccc(Cl)cc3)n2C)c1', 'Activity', 1.76),
  ('CCCCc1ccc(/N=c2/scc(CC(=O)Nc3ccc(OC)cc3)n2C)cc1', 'Activity', 1.98),
  ('Cc1ccc(NC(=O)Cc2cs/c(=N\c3ccccc3F)n2C)cc1', 'Activity', 1.94),
  ('COc1ccc(NC(=O)Cc2cs/c(=N\c3ccc(OC)c(Cl)c3)n2C)cc1', 'Activity', 1.98),
  ('COc1ccc(NC(=O)Cc2cs/c(=N\c3cccc(C(F)(F)F)c3)n2C)cc1', 'Activity', 2),
  ('CCc1ccc(NC(=O)Cc2cs/c(=N\c3ccc(C)cc3Br)n2C)cc1', 'Activity', 1.94),
  ('COc1ccc(NC(=O)Cc2cs/c(=N\c3ccc(Cl)cc3F)n2C)cc1', 'Activity', 1.97),
  ('CCc1ccc(NC(=O)Cc2cs/c(=N/c3ccc(C(C)=O)cc3)n2C)cc1', 'Activity', 2),
  ('Cn1c(CC(=O)Nc2ccc([N+](=O)[O-])cc2)cs/c1=N\c1ccc(F)cc1F', 'Activity', 1.23),
  ('CCCCCOc1ccc(/N=c2/scc(CC(=O)Nc3ccc(CC)cc3)n2C)cc1', 'Activity', 1.96),
  ('CCc1ccc(NC(=O)Cc2cs/c(=N\c3ccc(Cl)cc3F)n2C)cc1', 'Activity', 1.99),
  ('Cn1c(CC(=O)Nc2ccc(Cl)cc2)cs/c1=N\c1ccc(OC(F)(F)F)cc1', 'Activity', 1.82),
  ('COc1ccc(NC(=O)Cc2cs/c(=N\c3ccc(Cl)c(Cl)c3)n2C)cc1', 'Activity', 1.98),
  ('CCc1ccc(NC(=O)Cc2cs/c(=N/c3ccc(Cl)cc3)n2C)cc1', 'Activity', 2),
  ('CCc1ccc(NC(=O)Cc2cs/c(=N\c3ccc(Br)cc3)n2C)cc1', 'Activity', 1.98),
  ('CCc1ccc(NC(=O)Cc2cs/c(=N\c3ccc(F)cc3Cl)n2C)cc1', 'Activity', 1.98),
  ('CCc1ccc(NC(=O)Cc2cs/c(=N/c3ccc(OC(F)(F)F)cc3)n2C)cc1 (stereo in doubt; 5)', 'Activity', 1.99),
  ('COc1ccc(NC(=O)Cc2cs/c(=N\c3ccc(C)c(F)c3)n2C)cc1', 'Activity', 1.98);
